Target: T1, full-length (FL) His-MBP-Ars2 (S. pombe, UniProt O94326 1-609)
T1 chain: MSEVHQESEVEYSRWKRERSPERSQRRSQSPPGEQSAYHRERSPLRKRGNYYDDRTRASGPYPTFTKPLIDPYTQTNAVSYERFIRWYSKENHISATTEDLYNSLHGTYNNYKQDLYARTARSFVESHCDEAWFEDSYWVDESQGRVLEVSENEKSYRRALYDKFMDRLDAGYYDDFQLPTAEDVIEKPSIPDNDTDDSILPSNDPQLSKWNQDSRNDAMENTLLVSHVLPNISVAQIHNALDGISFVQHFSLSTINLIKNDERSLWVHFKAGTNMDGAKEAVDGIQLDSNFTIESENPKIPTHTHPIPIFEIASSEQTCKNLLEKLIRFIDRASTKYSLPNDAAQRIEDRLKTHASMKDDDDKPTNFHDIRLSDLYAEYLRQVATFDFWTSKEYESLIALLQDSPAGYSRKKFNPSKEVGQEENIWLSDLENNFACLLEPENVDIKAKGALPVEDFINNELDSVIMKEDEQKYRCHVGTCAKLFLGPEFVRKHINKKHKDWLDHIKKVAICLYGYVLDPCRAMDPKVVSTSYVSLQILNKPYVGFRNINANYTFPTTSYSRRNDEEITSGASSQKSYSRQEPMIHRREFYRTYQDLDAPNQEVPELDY
Test: ITC; 200 mM NaCl
pKd: −log10 of the molar value.
METRIC NAME: pKd

1) His-MBP-Red1 1-54 (domain or fragment) MSRSINLDELRKKALESKKKNEEDESNDSDKEDGEISEDDPVIDQSNSVPPMKV : 5.25
